# system under test: Hepatocyte nuclear factor 3-beta (Homo sapiens)
# protocol: ATG_FoxA2_CIS: Attagene CIS-FACTORIAL HepG2 Assay for human Forkhead box A2 (FOXA2) (AID 2282942)
# condition notes: HepG2 cis-reporter transcription factor activity, 24 h; actives raise or lower the signal
Activity calls are given as the source filed them. The calls were made as follows: active = hit-call score of the fitted dose curve at least 0.9, where 1 is the maximum; inactive = score below 0.9.
Your reply should match one of these outcome classes. Yes (active), No (inactive)

Outcome logged for Cc1nc(-c2ccc3c(c2)CCN(CCC2CCC(NC(=O)/C=C/c4ccc(F)cc4)CC2)CC3)no1 (stereo not given) in this assay:
No

Same question for Cc1ccc(Cl)cc1 please.
No

Same question for CCCCOC(=O)CCCCCCCCC(=O)OCCCC please.
No

Same question for O=c1[nH]cc(F)c(=O)[nH]1 please.
No

Same question for COc1ccc(S(=O)(=O)N2C(=O)[C@@](c3ccccc3OC)(N3C[C@H](O)C[C@H]3C(=O)N(C)C)c3cc(Cl)ccc32)c(OC)c1 please.
Yes

Same question for CC=Cc1ccc(O)c(OC)c1 please.
No

Same question for NC(=O)Cn1c(=O)cc(CCN2CCN(c3nccc4sccc34)CC2)c2ccc(F)cc21 please.
No

Same question for Oc1ccc2ccccc2c1N=Nc1ccccc1 please.
Yes

Same question for CC1=C(/C=C/C(C)=C/C=C/C(C)=C/CO)C(C)(C)CCC1 please.
No

Same question for CCCCCCCCCCCCCO please.
No

Same question for CN1CCCC1=O please.
No

Same question for CCCCc1ccc2c(n1)[C@@H](c1ccc(OC)cc1C[C@H](C)C(=O)O)[C@H](C(=O)O)[C@H]2c1ccc2c(c1)OCO2 please.
No

Same question for CCOC(=O)C(C)(C)Oc1ccc(Cl)cc1 please.
No

Same question for NCC1(Cc2noc(=O)[nH]2)CCCCC1 please.
No

Same question for COCCOC[C@H](CC1(C(=O)NC2CCC(C(=O)O)CC2)CCCC1)C(=O)Oc1ccc2c(c1)CCC2 (stereo not given in full) please.
No

Same question for Nc1nc(N)c2nc(CNc3ccc(C(=O)N[C@@H](CCC(=O)O)C(=O)O)cc3)cnc2n1 please.
No

Same question for COc1cc(C=O)ccc1O please.
No

Same question for COCCOCCOC please.
No

Same question for C[Si]1(C)O[Si](C)(C)O[Si](C)(C)O[Si](C)(C)O1 please.
No

Same question for FC(F)(F)C(F)(F)C(F)(F)C(F)(F)C(F)(F)C(F)(F)CCI please.
No

Same question for Cc1ccc(C)c(C)c1 please.
No

Same question for CC(=O)OC/C=C(\C)CCC=C(C)C please.
No

Same question for O=C(OCCCCCOC(=O)c1ccccc1)c1ccccc1 please.
No

Same question for COc1cccc2c1C(=O)c1c(O)c3c(c(O)c1C2=O)C[C@@](O)(C(=O)CO)C[C@@H]3O[C@H]1C[C@H](N)[C@H](O)[C@H](C)O1 please.
No

Same question for CCCCC(CC)COC(=O)CC(C(=O)OCC(CC)CCCC)S(=O)(=O)O (stereo not given) please.
No

Same question for Cc1cc(=O)[nH]c(=S)[nH]1 please.
No

Same question for Clc1cc(Cl)c(Cl)cc1Cl please.
No

Same question for CCCCN(CCCC)CCCC please.
No

Same question for Cc1ccc(N(C)C)cc1 please.
No

Same question for CC(CO)OC(C)CO (stereo not given) (tested in a mixture with another compound) please.
No

Same question for Cc1ccc2ncccc2c1 please.
No

Same question for Nc1ccc(S(=O)(=O)c2ccc(N)cc2)cc1 please.
No

Same question for COc1ccc(C)cc1N please.
No

Same question for CC(=O)Oc1ccccc1C(=O)O please.
No

Same question for Cc1oc(-c2ccccc2)nc1CCOc1cccc2c1ccn2CCC(=O)O please.
Yes

Origin of values: PubChem BioAssay (EPA / NIEHS)
